Endpoint summary: pIC50, system: Carbonic anhydrase 2 (Homo sapiens, UniProt P00918), multiple sources combined.
On this scale, pIC50 is minus log10 of a concentration expressed in M (mol/L).

Form field pIC50, entry NS(=O)(=O)c1cc2c(s1)C(O)CCS2(=O)=O (stereo not given) : 7.40

Form field pIC50, entry O=[N+]([O-])c1cccc(S(=O)(=O)NC(P(=O)(O)O)P(=O)(O)O)c1 : 5.42

Form field pIC50, entry O=c1cc(Cn2c[n+](CCCCCn3c[n+](Cc4cc(=O)oc5cc(O)ccc45)c4ccccc43)c3ccccc32)c2ccc(O)cc2o1 : 4.05

Form field pIC50, entry CN1CCN(Cc2ccc(C(=O)c3csc(S(N)(=O)=O)c3)cc2)CC1.Cl : 8.40

Form field pIC50, entry CC(C)CNCCC1CNc2cc(S(N)(=O)=O)sc2S1(=O)=O (stereo not given) : 8.54

Form field pIC50, entry O=C(NCCN1CCCCC1)P(=O)(O)O : 5.07

Form field pIC50, entry CC(C)CN(C)Cc1cc(S(=O)(=O)c2csc(S(N)(=O)=O)c2)ccc1O.Cl : 8.30

Form field pIC50, entry CC(=O)Oc1ccc2[nH]c(S(N)(=O)=O)cc2c1 : 7.96

Form field pIC50, entry CN(C)S(=O)(=O)Oc1ccc2nc(S(N)(=O)=O)sc2c1 : 8.92
